Test system: 786-0
Test: NCI tumour cell line growth inhibition, 48 h
Calls of active or inactive are those of the source. Cut-off read from the data, not from the text of the source: active = GI50 up to about 1.1 µM and inactive = higher.
Permitted responses: 1 (active), -1 (inactive)

Before answering, review these 6 worked examples.
c1cc(CSP234N5CCN2CCN3CCN4CC5)cc(CSP234N5CCN2CCN3CCN4CC5)c1 : -1
C/C(=C(/C)c1ccc(O)cc1)c1ccc(O)cc1 : -1
C=C(C)[C@@H]1CCC2=C[C@@H](OC2=O)[C@@H](C(=C)C)C2=CC(C(=O)O)=C(C1)O2 : -1
CC1(C)CC(=O)C2=C(C1)OC1(CC2c2ccc(Cl)cc2)CC(c2ccc(Cl)cc2)C2=C(CC(C)(C)CC2=O)O1 (stereo unspecified) : -1
CC1(C)NC(=O)N(CCCCCCN2C(=O)NC(C)(C)C2=O)C1=O : -1
CN1C(=O)N(c2ccccc2)C2(CCN(CC3COc4ccccc4O3)CC2)C1=O (stereo unspecified) : -1

Q: Per the records of this test, what outcome belongs to Cc1ccc(OCCn2cc(Nc3ccccc3)c(=O)[nH]c2=O)cc1 ?
A: -1

Q: Give the logged outcome of this assay for the following compound: CCOC(=O)C1(C)CCC(C(=O)OC)C1=O (stereo unspecified)
A: -1

Q: What is the recorded call for this compound in the test? CC(=O)Nc1ccc2c3c(cc(O)c2c1)N(C(=O)CCCCC(=O)N1CC(CCl)c2c1cc(O)c1cc(NC(C)=O)ccc21)CC3CCl (stereo unspecified)
A: 1

Q: Just curious, what result did CC(C)(CO)NC(=O)Nc1c(C(F)(F)F)cc(-c2ccccc2)[nH]c1=O get here?
A: -1

Q: Any idea what this test logged for CCCN1C(=O)CC(C)N(Cc2ccccc2Cl)C1=S (stereo unspecified) ?
A: -1

Q: How was N=C(N)/N=C(/C=C/c1ccccc1)CC1OC(=O)c2ccccc21 (stereo unspecified) classified in this test?
A: -1

Q: Could you kindly confirm the outcome this assay logged for O=C(O)c1nc2ccc(C(F)(F)F)cc2nc1Nc1ccc(Cl)c(Cl)c1 ?
A: -1

Q: Could you please tell me the result logged for CCCCCCCCCC[S+]([O-])CC(CO)NC(=O)/C=C/c1c(C)nc(O)nc1O (stereo unspecified) in this assay?
A: -1

Q: Dear colleague, could you share the recorded outcome for COc1cc2c(cc1O)CC13CCC(=O)N1CCc1cc(OC)c(O)c-2c13 (stereo unspecified) when you have a moment?
A: -1

* * *

Quick reference for GI50 among some compounds
System: HCT-15
Reply numerically in µM, unit not repeated.

Example entries begin here.
OC(c1ccc(Br)cc1)(c1cccs1)C1CC1 (stereo not drawn) : 25.4
CCOC(=O)COC1=Nc2cc(OC)c(OC)c3nc(Cl)cc(c23)C1=O : 2.34
c1ccc([B-]2(c3ccccc3)NCCCO2)cc1 : 31.8

Next up:
Considering CCCN(C(=O)c1c(Cl)nnc(Cl)c1C(=O)c1cc(Cl)nnc1Cl)c1cc(Cl)nnc1Cl , its GI50 with HCT-15 was recorded as 4.65

* * *

Tested on: HCT-15
Measurement Kind: GI50 (µM)
Write down the numeric answer in µM and omit the unit.

O=C(/C=C\c1cccc2ccccc12)c1ccc(Br)cc1 : 17.7

The compound O=[N+]([O-])c1cc(Cl)ccc1S(=O)(=O)c1ccc(Cl)cc1[N+](=O)[O-] , tested on HCT-15, showed GI50 of 17.3

I looked up CC(C)(C)OC(=O)N1C[C@H](CC(=O)OCc2ccccc2)C[C@H]1C(=O)OCC(Cl)(Cl)Cl and its GI50 for HCT-15 was 3.27

* * *

Test system: SNB-19
Test: NCI tumour cell line growth inhibition, 48 h
Calls of active or inactive are those of the source. No stated cut-off is given here; in the data, active = GI50 up to about 1.1 µM and inactive = higher.
Measurement Kind: GI50

Look over these answered cases.
C=CCCC(O)c1cc(C)c(O)c(C)c1 (configuration not stated) : > 100 µM (inactive)
Clc1ccc(Cc2nc3cc(Cl)ccc3o2)cc1 : 39.6 µM (inactive)
NNC(=O)C1(NC(=O)c2ccccc2)C(c2ccccc2)C(c2ccccc2)=NN1c1ccccc1 (configuration not stated) : 66.2 µM (inactive)

Entry N#Cc1c(NC(=S)NCc2ccccc2)sc2c1CCN(N1CCc3c(sc(NC(=S)NCc4ccccc4)c3C#N)C1)C2 : GI50 on SNB-19 = > 100 µM (inactive)

Observed GI50, SNB-19, O=C1C(Cl)N(c2ccc(Cl)cc2)C1c1c[nH]c2ccccc12 (configuration not stated) : 18.2 µM (inactive)

The reported SNB-19 GI50 of O=C(Oc1cc(=O)c(OC(=O)c2ccccc2)co1)c1ccccc1 is 92.7 µM (inactive)

Test item COc1ccc(CCN(C)C2CCC(C#N)(c3ccc(OC)c(OC)c3)CC2)cc1OC (configuration not stated) ; SNB-19; reported GI50 was > 100 µM (inactive)

Summary line: CC1=C(SC#N)S(=O)(=O)N(c2ccccc2)C(C)=C1SC#N , SNB-19, reported GI50 = 25.1 µM (inactive)

Record O=C(CC1C(=O)c2ccccc2C1=C1C(=O)c2ccccc2C1=O)c1ccccc1 (configuration not stated) has SNB-19 GI50 equal to > 100 µM (inactive)

Reported SNB-19 GI50 for item Nc1ccc(S(=O)(=O)Nc2nnc(S(N)(=O)=O)s2)cc1 was > 100 µM (inactive)

Readout GI50 for CC12Oc3ccc4ccccc4c3CC1Cc1c(ccc3ccccc13)O2 (configuration not stated) , test system SNB-19, was 45.5 µM (inactive)

Tested on SNB-19, the item CCOC(=O)C1(Cc2ccc3c(c2)CCC3)Cc2cc3c(cc2C1=O)CCC3 (configuration not stated) showed GI50 equal to > 100 µM (inactive)

The compound Cc1occc1C(=S)Nc1ccc(Cl)c(C(=O)OCC(C)C)c1 , tested on SNB-19, showed GI50 of 17.1 µM (inactive)

* * *

Reported GI50 values for a set of molecules
System: CAKI-1
Assay: NCI tumour cell line growth inhibition, 48 h
Activity calls are given as the source filed them. Rule as the data show it: active = GI50 up to about 1.1 µM and inactive = higher.

The observed GI50 for CCOP(=O)(OCC)C(C)(C)OC(=O)NC(F)(F)F when tested with CAKI-1 stands at > 100 µM (inactive)

GET /values?item= C=C1C2C[C@@H]3OC4CC5O[C@]6(CC5OC4C(C)C3OC(=O)CC3CC[C@@H]4OC5C7OC8C[C@](CCC9CC(=C)[C@H](CCC(C[C@H]1C)O2)O9)(OC7C4O3)O[C@@H]85)C[C@@H]1O[C@@]2(CC(C)[C@@H]3OC(CC(=O)CCO)C(O)C[C@@H]3O2)CC(C)[C@@H]1O6 (some centres undefined) &system= CAKI-1 returns GI50: < 0.001 µM (active)

Log: CAKI-1, molecule COc1cc(C=C2C(=O)NC(=S)NC2=O)cc(OC)c1OC , GI50 = > 100 µM (inactive)

Observed GI50, CAKI-1, O=C(O)c1nc2ccc(C(F)(F)F)cc2nc1Nc1ccc(Cl)c(Cl)c1 : 15.5 µM (inactive)

# O=c1nc2n(CCO)c(-c3ccccc3)c(-c3ccccc3)nc-2c(=O)[nH]1 with CAKI-1: GI50 is > 100 µM (inactive)

Lab entry: CAKI-1 assay, molecule CN1C(=O)C(O)C[C@@H]1c1ccccc1 (some centres undefined) , GI50 = > 100 µM (inactive)

* * *

System: UO-31
Test: NCI tumour cell line growth inhibition, 48 h
Active and inactive are the calls of the source. Rule as the data show it: active = GI50 up to about 1.1 µM and inactive = higher.
Each entry below carries its reported GI50.

GET /values?item= Cc1ccc(OCCn2cc(Nc3ccccc3)c(=O)[nH]c2=O)cc1 &system= UO-31 returns GI50: > 100 µM (inactive)

For O=C1C(Cl)N(c2ccc(Cl)cc2)C1c1c[nH]c2ccccc12 (stereo not given) on UO-31, measured GI50 was 11.6 µM (inactive)

Log: UO-31, compound N#C/C(=C\c1ccc[nH]1)C(=O)c1ccccc1 , GI50 = > 100 µM (inactive)

Case COc1ccc2c3c([nH]c2c1)[C@H](C=C(C)C)N1C(=O)[C@@H]2CCCN2C(=O)[C@@H]1C3 , UO-31, GI50 recorded as > 100 µM (inactive)

Case COc1cc2oc(-c3ccc(O)cc3)cc(=O)c2c(OC)c1OC , UO-31, GI50 recorded as > 100 µM (inactive)

* * *

Test system: RPMI-8226
Experiment: NCI tumour cell line growth inhibition, 48 h
The source made the active and inactive calls. No stated cut-off is given here; in the data, active = GI50 up to about 1.1 µM and inactive = higher.
A collection of compounds and their measured GI50

Consider the following illustrative entries.
O=C(O)Cc1ccc(Oc2nc3ccccc3nc2-c2ccccc2)cc1 : 66.8 µM (inactive)
O=C(NC12CC3CC(CC(C3)C1)C2)C(=O)c1c[nH]c2ccccc12 : 12.2 µM (inactive)
COC(=O)C(Cc1ccccc1)NC(=O)CNC(=O)CSc1nnc(COc2ccc(Cl)cc2)n1-c1ccccc1 (stereo not given) : 4.74 µM (inactive)
CC(=O)Oc1c(-c2ccccc2)sc2ccccc12 : 1.61 µM (inactive)

Please turn your attention to the following entry.
The compound COc1ccc(N2C(=O)C3c4[nH]c5c(C)cccc5c4C4CCC(c5ccccc5)CC4C3C2=O)cc1 (stereo not given) on RPMI-8226: GI50 was 7.55 µM (inactive)

This collection of values is drawn from ChEMBL document CHEMBL1201862.
